Values were extracted from patent US20250011448A1.

Molecular target: T1, human TNFR2 expressed on cells (Expi293 cells stably expressing huTNFR2) (human, UniProt P20333 23-461)
T1 construct: whole, on cells; Also used here as the target of the Treg assay (native TNFR2 on human primary Treg cells); also called huTNFR2 expressed cells; Expi293-TNFR2 cells
T1 sequence (looked up): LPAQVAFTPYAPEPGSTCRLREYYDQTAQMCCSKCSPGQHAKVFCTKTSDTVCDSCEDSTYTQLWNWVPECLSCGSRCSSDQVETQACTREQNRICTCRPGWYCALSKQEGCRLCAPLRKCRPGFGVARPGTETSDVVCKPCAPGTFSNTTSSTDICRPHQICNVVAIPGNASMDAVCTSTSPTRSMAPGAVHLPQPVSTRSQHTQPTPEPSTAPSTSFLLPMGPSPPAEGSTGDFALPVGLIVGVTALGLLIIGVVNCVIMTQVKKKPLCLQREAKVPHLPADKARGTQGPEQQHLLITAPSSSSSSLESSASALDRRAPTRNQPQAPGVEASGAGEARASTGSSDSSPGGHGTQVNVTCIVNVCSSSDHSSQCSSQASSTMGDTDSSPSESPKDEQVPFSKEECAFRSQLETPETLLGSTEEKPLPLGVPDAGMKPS
Assay: flow cytometry on Expi293 cells stably expressing huTNFR2
Description: The coding sequence of huTNFR2 (Uniprot, P20333) was cloned into a lentiviral vector and the virus was packaged according to the instruction of the virus packaging kit (Lenti-X™ Packaging Single Shots, Cat #631275, Takada). The Expi293 cells were transduced with the recombinant virus and selected by puromycin. […] Data were analyzed with FlowJo software. Antibody binding is represented as median fluorescence intensity (MFI). […]
quantity: EC50 (nM)
I only need the number, in nM, no unit after it.

Some binders with recorded EC50:
{"binder": "11C1 chimeric anti-TNFR2 antibody (antibody, V domains shown, Chimeric: mouse variable domains with human constant regions, made as recombinant IgG1) VH: DVQLRESGPGLVTPSQSLSLTCSVTGYSITSGYYWNWIRQIPGNKLEWMGYITYDGNNNYDPSLKNRISITRDTSKNQFFLTLNSVTSEDTATYYCARGDYGDSAMDYWGQGTSVTVSS VL: EIVLTQSPAITAASLGQKVTITCSASSSVSYMHWYQQKSGTSPKPWIYEISKLASGVPARFSGSGSGTSYSLIISSMEAEDAAIYYCQQWNYPLITFGAGTKLELK", "val": 2.04}
{"binder": "29G3 chimeric anti-TNFR2 antibody (antibody, V domains shown, Chimeric: mouse variable domains with human constant regions, made as recombinant IgG1) VH: EVMLVESGGASVKPGGSLKLSCAASGFTFSNFAMSWVRQTPEKRLEWVATIRSGDNYSYYSDNVKGRFTISRDNARNTLYLQMSSLRSKDTSIYYCARNWDKVFDYWGQGTTLTVSS VL: DIVLTQSPASLAVSLGQRATISCRASESVDSYGYSFMHWYQQKPGQPPKLLIYRASNLKSGIPARFSGSGSRTDFTLTINPVEADDVATYYCQQSNEDHTFGGGTKLEIK", "val": 0.654}
{"binder": "85G8.4 chimeric anti-TNFR2 antibody (antibody, V domains shown, Chimeric: mouse variable domains with human constant regions, made as recombinant IgG1) VH: EVQLQQSGPELVKPGASVKISCKTSGYTFTDFNMDWVKQSHGKSLEWIGYINPNNGDAAYNQKFKSKATLTVDKSSNTAYMELHSLTSDDSAVYYCARWGWAFAYWGQGTLVTVSA VL: DIVMTQSHKIMSTSVGDRVSITCKASQDVKTAVAWYQQKPGQSPKLLIYATSYRYTGVPDRFTGSGSGTDFTFTISTVQAEDLAVYYCQQHYSIPYTFGGGTKLEIK", "val": 1.47}
{"binder": "15H10 chimeric anti-TNFR2 antibody (antibody, V domains shown, Chimeric: mouse variable domains with human constant regions, made as recombinant IgG1) VH: DVQLQESGPGLVTPSQSLSLTCSVTGYSITSGYYWNWIRQFPGNKLEWMGYITYDGNNNYNPSLKSRFSITRDTSKNQFFLKLNSVTSEDTATYYCARGDYGDSAMDYWGQGTSVTVSS VL: EIVLTQSPAITAASLGQKVTITCSASSGVNYMHWYQQKSGTSPKPWIYEISKLASGVPARFSGSGSGTSYSLTISSMEAEDAAIYYCQQWNYPLITFGAGTKVELK", "val": 2.52}

Moving on to the next binder.
Noted for 102E4 chimeric anti-TNFR2 antibody (antibody, V domains shown, Chimeric: mouse variable domains with human constant regions, made as recombinant IgG1) VH: EVLLQQSGAELVRPGASVKLSCTASGFNIKDDFIHWVQQRPEQGLEWIGRINPSNANTEYAPKFQDKATITTDTSSNTAYLQLSSLTSEDTAVYYCTRNDGYYDGLFYWGQGTTLTVSS VL: DIVMTQSHKFMSSSVGDRVSITCKASQDVGTAVAWYQQKPGQSPKLLIYWASTRHTGVPDRFTGSGSGTDFTLTISNVQSEDLADYFCQQYSSYPFTFGSGTKLEIK : its EC50 reads 0.819
